// provenance: PubChem BioAssay

# Test system: Inhibin beta A chain (activin A)
# procedureSummary: small molecules binding activin A – biochemical, small-molecule microarray, 635 nm fluorescence scan, primary screen (AID 1107);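 further: mouse activin A protein probed at 4.33 µg/mL on printed slides; score merges bound-protein fluorescence near 667 nm with spot signal-to-noise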
# condition: INHBA, higher = more signal
# maps each entry to its composite z-score
Provide a numeric answer; units are not to be included.

Value of composite z-score reported for the compound O=C1NC(=O)C2C1C=CC(C(O)c1cccs1)N2Nc1ccccn1 (stereo not drawn) is 0.538

Summary for this compound, CN1C(=O)C2C=CC(C(O)C(C)(C)C)N(Nc3ccccc3)C2C1=O (stereo not drawn) : composite z-score is 0.941

Sure, the documented composite z-score for `COC(=O)[C@@]1(Cc2ccc(OC)cc2)[C@H]2c3cc(C(=O)N4CCCC4)n(CCc4ccccn4)c3C[C@H]2CN1C(=O)c1ccccc1` is 0.845

The reported value for `NC(=O)NCC#Cc1ccc2c(c1)[C@]1(C(=O)N2)[C@H](c2ccccc2OCCO)N2[C@H](c3ccccc3)[C@H](c3ccccc3)OC(=O)[C@H]2[C@@H]1C(=O)N1CCCCCCC1` in terms of composite z-score is 1.88

Value of composite z-score reported for the compound `C=C(COC)C(=O)CC[C@@H](OC(=O)c1ccccc1-c1ccccc1C(=O)O)c1ccc(CO)o1` is 0.466

// composite z-score lookup, compound = `O=C1O[C@@H](c2ccccc2)[C@@H](c2ccccc2)N2[C@@H](c3ccc(O)cc3)[C@]3(C(=O)Nc4ccc(C#CCCO)cc43)[C@@H](C(=O)O)[C@H]12` , result: 1.76

Looking up `CC(C)CNC(=O)[C@@]1(C)c2ccccc2C(=O)N(C(C)C)[C@H]1c1ccc(CO)cc1` , I found its composite z-score recorded as 1.26

compound CCN(CC)c1ccc(N2CC=CC34O[C@@H]5/C=C\CCCOC(=O)C5[C@H]3C(=O)N(CCCO)[C@@H]4C2=O)cc1 (stereo partly drawn) , composite z-score observed: -0.222

* * *

Listed here are compounds together with their documented z-score.
# procedureSummary: optical density shifts of acrAB sulA E. coli – strain DRC41, OD650, 48 h, E. coli filamentation inducer project, primary screen (AID 1152);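 further: E. coli MC1000 strain DRC41 lacking acrAB efflux pump and sulA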
# condition: higher = more signal, called active from +8 up or from −8 down
// return a plain number; no unit text

CCCNC(=O)[C@@]1(c2ccc([N+](=O)[O-])cc2)CC(=O)N(CC23CC4CC(CC(C4)C2)C3)[C@@H]1c1ccc(CO)cc1I; 0.0121

z-score in this record for CCCCCCCCCCC(O)C1C=CC2C(=O)N(c3ccccc3)C(=O)C2N1Nc1ccc([N+](=O)[O-])cc1 (configuration not stated) : -1.14

# z-score of `Cc1ccc(F)cc1S(=O)(=O)N[C@@H]1CCN(Cc2ccc(C(F)(F)F)cc2)C1` = -5.36

z-score recorded for this compound, CN1C(=O)C2C=CC(C(O)C=Cc3ccc([N+](=O)[O-])cc3)N(N3CCCCC3)C2C1=O (configuration not stated) , is -1.54

* * *

Examples of molecules with documented z-score follow.
# procedureSummary: JC-1 mitochondrial signal, unstimulated HepG2 cells – cell-based, JC-1 fluorescence, 24 h, 100 nL compound, profiling panel (AID 1167); further: test concentration not given here
# condition: HepG2 mitochondrial potential, higher = more signal

Known results for molecules:
COc1cc(NN2C(C(O)c3ccccc3)C=CC3C(=O)N(c4ccccc4)C(=O)C32)cc(OC)c1OC (centres undefined); -0.602
CN(C)CCCC[C@@H]1NC(=O)[C@H]2C[C@@H](C(=O)NCCCCCNC(=O)CS)[C@@H](c3ccc(O)cc3)N2C1=O; 1.68
Cc1ccccc1/C=C/C=O; 1.65

For record CS(=O)(=O)CCOC(=O)C1=CC(c2ccc(CO)cc2)=CC(c2cccs2)N(Cc2cccc(OC(F)(F)F)c2)C=C1C(=O)OCCS(C)(=O)=O (centres undefined) the listed z-score is -2.84

* * *

# procedureSummary: calcein-AM signal in unstimulated myeloma cells – cell-based, calcein-AM fluorescence, 48 h, PK04 Diversity Set, profiling panel (AID 1166);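 further: cells grown under basal conditions without added stimulus; test concentration not given here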
# condition: RPMI8226 myeloma viability, higher = more signal
Reported z-score values are given for each entry in this list.
Answer as a number with no unit attached.

Example results:
CCCCN1CC=CC23O[C@@H]4/C=C\CCCOC(=O)C4[C@H]2C(=O)N(C(C)CO)[C@@H]3C1=O (stereo partly drawn); 1.4
NC(=O)NCC#Cc1ccc2c(c1)[C@]1(C(=O)N2)[C@H](c2ccccc2OCCO)N2[C@H](c3ccccc3)[C@H](c3ccccc3)OC(=O)[C@H]2[C@@H]1C(=O)N1CCCCCCC1; 0.236
COc1ccc(C(=O)Nc2cccc(CN3C(=O)[C@@]4(O[C@@H](CC(=O)N5Cc6ccccc6C[C@H]5CO)[C@H]([Si](C)(C)c5ccc(OC)cc5)[C@H]4C)c4ccccc43)c2)cc1; -3.06
COCCn1c(C(=O)N2CCCC2)cc2c1C[C@H]1CN(C(=O)c3ccccc3)[C@@](Cc3ccc(OC)cc3)(C(=O)OC)[C@@H]21; 0.426

Summary for this molecule, `C=C(CCCC)/C(=C/C[C@H](OC(C)=O)c1ccc(CO)o1)c1cc(C(=O)OC)ccc1OC` : z-score is -2.15

For this molecule ( `[N-]=[N+]=NCc1ccccc1C[C@@]1(C(=O)NCc2ccccc2)N=C(c2ccc(OCCCO)cc2)O[C@@H]1c1ccccc1CN=[N+]=[N-]` ), measured z-score is -1.13

Given item Cc1ccc(S(=O)(=O)N2CC(C(=O)O)=CCC2c2ccccc2)cc1 (stereo not drawn) , the value recorded as its z-score is -1.19

Recorded z-score (molecule `C=CCOC(=O)[C@@H]1[C@H]2C(=O)O[C@H](c3ccccc3)[C@H](c3ccccc3)N2[C@H](c2ccc(OCCOC(=O)[C@H]3C[C@H]4C(=O)N[C@@H](Cc5ccccc5)C(=O)N4[C@H]3c3ccc(O)cc3)cc2)[C@@]12C(=O)Nc1ccc(I)cc12` ): -2.98

z-score recorded for this molecule, `Cc1ccccc1/C=C/C=O` , is 0.0415

z-score in this record for `O=C(NCc1ccccc1)[C@@H]1c2ccccc2C(=O)N(Cc2cc(F)cc(C(F)(F)F)c2)[C@H]1c1ccc(CO)cc1` : -0.161

For this molecule ( `O=C1O[C@H](c2ccccc2)[C@H](c2ccccc2)N2[C@H]1[C@@H](C(=O)Nc1nc3ccccc3s1)[C@]1(C(=O)Nc3ccc(C#CC4=CCCCC4)cc31)[C@H]2c1ccc(OCCO)cc1` ), measured z-score is -1.7

Looking up CN1C(=O)C2C(C1=O)C1C=C(c3ccc(CO)cc3)C2C(C2CC2)N1Cc1cc2c(cc1Br)OCO2 (stereo not drawn) , I see its z-score listed as -1.75

* * *

# procedureSummary: growth effects on S. cerevisiae YJM789 – YJM789 clinical isolate, OD600, 24 h, basal, primary screen (AID 1089);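 further: growth of clinical yeast isolate S. cerevisiae YJM 789 seeded 1000 cells per well; test concentration not given here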
# condition: higher = more signal, called active from +8 up or from −8 down
Is z-score at least -0.3? Then True. If not, False.

// known answers, use as guide
COCCCNC(=O)[C@@]1(C)c2ccccc2C(=O)N(Cc2ccccc2)[C@H]1c1ccc(CO)cc1; True
Cc1ccc(N2C(=O)c3ccccc3[C@@H](C(=O)NC(C)C)[C@@H]2c2ccc(CO)cc2)nc1; False
[N-]=[N+]=NCc1ccccc1C[C@]1(C(=O)NCC(O)CO)COC(c2ccc(OCCCO)cc2)=N1 (stereo partly specified); False
C=C(/C(=C/C[C@@H](OC(=O)c1ccncc1)c1ccc(CO)o1)c1cc(C(=O)OC)ccc1OC)C(C)C; True

Lookup: Does `NC(=O)NCC#Cc1ccc2c(c1)[C@]1(C(=O)N2)[C@H](c2ccc(O)cc2)N2[C@H](c3ccccc3)[C@H](c3ccccc3)OC(=O)[C@H]2[C@@H]1C(=O)N1CCN(c2ncccn2)CC1` have a reported z-score of at least -0.3?
Found: True

Lookup: Given C=CCC(OC(C)=O)[C@@H]1[C@@H](N(Cc2cc3ccccc3o2)C(=O)c2ccc(C)cc2)c2cc(OCCCO)ccc2N1C(=O)c1ccc(-c2ccccc2)cc1 (stereo partly specified) , state whether its z-score is at least -0.3.
Found: False

Lookup: Determine whether measured z-score meets or exceeds -0.3 for `CCCC[C@@H]1C[C@H]1[C@@H](NC(=O)c1ccccc1)c1ccccc1`
Found: True

* * *

Measured z-score, listed per entry.
# procedureSummary: optical density shifts of acrAB sulA E. coli – strain DRC41, OD650, 48 h, E. coli filamentation inducer project, primary screen (AID 1152);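 further: E. coli MC1000 strain DRC41 lacking acrAB efflux pump and sulA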
# condition: higher = more signal, called active from +8 up or from −8 down
Lab note: write the figure by itself, no unit.

Consider the worked cases shown below.
CC(C)(C)OC(=O)CC[C@]1(C(=O)NCC(O)CO)N=C(c2ccc(OCCCO)cc2)O[C@H]1c1ccccc1CN=[N+]=[N-] (some centres undefined); -0.207
CC(C)NC(=O)[C@@H]1c2ccccc2C(=O)N(C2CCCCC2)[C@H]1c1ccc(CO)cc1; -0.359
C[C@H]1C2[C@H](Cc3ccccc3)NC(=O)[C@]23C(=O)N[C@H](Cc2ccccc2)C(=O)N[C@H](Cc2ccccc2)C(=O)NC/C=C/CCC/C=C/C3[C@@H]2O[C@]12C (some centres undefined); 0.655
[N-]=[N+]=NCc1ccccc1[C@@H]1OC(c2ccc(OCCCO)cc2)=N[C@]1(Cc1ccccc1N=[N+]=[N-])C(N)=O; -0.386
COc1ccc([Si](C)(C)[C@@H]2[C@@H](CCO)O[C@]3(C(=O)N(Cc4ccccc4)c4ccc(N(C=O)c5ccccc5)cc43)[C@H]2C)cc1; 0.601
CN(C)CCCC[C@@H]1NC(=O)[C@H]2C[C@@H](C(=O)NCCCCCNC(=O)CS)[C@@H](c3ccc(O)cc3)N2C1=O; 0.445
CC1CC/C=C\[C@H]2OC34C=CCN(Cn5nnc6ccccc65)C(=O)[C@H]3N(CCCO)C(=O)[C@@H]4C2C(=O)O1 (some centres undefined); 1.29
CC(C)(C)OC(=O)CC[C@@]1(C(=O)NCC(O)CO)N=C(c2ccc(OCCCO)cc2)O[C@@H]1c1ccccc1 (some centres undefined); -0.0744
CC(C)N1C(=O)c2ccccc2[C@](C)(C(=O)NCCCN(C)C)[C@@H]1c1ccc(CO)cc1; 0.0259
O=C1OCC=C[C@H]2OC34C=CCN(Cc5ccccc5)C(=O)[C@H]3N(CCCO)C(=O)[C@@H]4[C@@H]12 (some centres undefined); 2.57

response.value for `COCCOC(=O)N1C(=O)[C@@]2(c3cc(C#CC4=CCCCC4)ccc31)[C@H](c1ccc(OCCO)cc1)N1[C@H](c3ccccc3)[C@H](c3ccccc3)OC(=O)[C@H]1[C@@H]2C(=O)Nc1nc2ccccc2s1` (field: z-score) = 2.88

Lab note: `CCOC(=O)C[C@H]1[C@H](OC(=O)c2ccccc2-c2ccccc2)[C@@H](NC(=O)c2ccc(-c3ccccc3)cc2)c2cc(OCCCO)ccc2N1C(=O)c1ccccc1` gave z-score of 0.657

z-score in this record for C=CCC(OC(C)=O)[C@@H]1[C@@H](N(Cc2cc3ccccc3o2)C(=O)c2cccc3ccccc23)c2cc(OCCCO)ccc2N1C(=O)Cc1ccc2ccccc2c1 (some centres undefined) : -0.288

// z-score value for `CCCNC(=O)[C@@]1(C)c2ccccc2C(=O)N(Cc2cc(F)cc(C(F)(F)F)c2)[C@H]1c1ccc(CO)cc1` : 0.119
